Hello, the source for this data is ChEMBL document CHEMBL1133933, in case you need it.

- assayNotes: Krel expressed as Ki with respect to Ktrolox
Outcome: rule met for Krel of at least 7; rule not met for anything lower.

Asked: Given the entry Cc1nc2cnc(-c3ccccc3)cn2c1O.Cl , answer whether its Krel meets or surpasses 7.
Given back: rule met

Asked: Next compound up: Cl.Oc1ccc(-c2cn3c(O)c(-c4ccccc4)nc3cn2)cc1
Given back: rule not met

Asked: Then Cl.Oc1c(Cc2ccccc2)nc2cnc(-c3ccccc3)cn12 ?
Given back: rule not met

Asked: // next record Cl.Oc1c(-c2ccccc2)nc2cnccn12
Given back: rule not met

Asked: What would you report for COc1ccc(-c2cn3c(O)c(Cc4ccc(O)cc4)nc3c(Cc3ccccc3)n2)cc1 ?
Given back: rule not met

Asked: Now the compound Cl.Oc1ccc(-c2cn3c(O)c(Cc4ccccc4)nc3cn2)cc1
Given back: rule not met

Asked: Try Cc1nc2cnc(-c3ccc(O)cc3)cn2c1O.Cl next.
Given back: rule met

Asked: Next compound up: Cc1nc2cnccn2c1O.Cl
Given back: rule not met

Asked: What do you get for COc1ccc(-c2cn3c(O)c(C)nc3cn2)cc1.Cl ?
Given back: rule met

Asked: Then this compound: Cl.Oc1c(Cc2ccccc2)nc2cnccn12
Given back: rule not met

Asked: Another compound: COc1ccc(-c2cn3c(O)c(Cc4ccccc4)nc3cn2)cc1.Cl
Given back: rule met

Asked: Consider next the compound Cc1c(C)c2c(c(C)c1O)CCC(C)(C(=O)O)O2 (stereo not drawn) [TROLOX] in the same way.
Given back: rule not met
